Entries with reported IC50 on human FGFR3 wild type enzyme (cytoplasmic domain) (Homo sapiens, UniProt P22607)
Sequence (P22607 397-806 limits assumed): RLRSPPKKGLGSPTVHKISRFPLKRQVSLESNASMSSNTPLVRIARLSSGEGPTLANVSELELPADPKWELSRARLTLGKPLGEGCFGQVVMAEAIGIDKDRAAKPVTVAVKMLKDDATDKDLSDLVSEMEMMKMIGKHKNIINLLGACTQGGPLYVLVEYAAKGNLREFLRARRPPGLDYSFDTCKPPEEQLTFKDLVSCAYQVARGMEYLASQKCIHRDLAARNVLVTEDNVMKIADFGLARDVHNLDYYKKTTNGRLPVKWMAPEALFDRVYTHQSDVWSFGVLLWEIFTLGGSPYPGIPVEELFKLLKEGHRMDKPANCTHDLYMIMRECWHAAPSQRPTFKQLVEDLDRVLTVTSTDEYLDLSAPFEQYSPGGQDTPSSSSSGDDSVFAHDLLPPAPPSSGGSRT
MEASURED_PROPERTY: IC50 (nM)

// solved cases for IC50 follow
C[C@H](Nc1c(-c2nc3ccc(N4CCCCC4)cc3[nH]2)c(=O)[nH]c2ccccc12)c1ncccn1 (single isomer, unassigned) [Compound 28a]: 0.552
COc1ccnc(C(C)Nc2c(-c3nc4ccc(N5CCOCC5)cc4[nH]3)c(=O)[nH]c3ccccc23)c1 (single isomer, unassigned) [Compound 48a]: 19.9
CC(Nc1c(-c2nc3ccc(-c4cnn(C)c4)cc3[nH]2)c(=O)[nH]c2ccccc12)c1ncccn1 (single isomer, unassigned) [Compound 53a]: 0.47

a = CC(Nc1c(-c2nc3ccc(C4CCOCC4)cc3[nH]2)c(=O)[nH]c2ccccc12)c1ncccn1 (single isomer, unassigned) [Compound 29a]
b = C[C@H](Nc1c(-c2nc3ccc(N4CCN(C)CC4)cc3[nH]2)c(=O)[nH]c2ccccc12)c1ccccn1
c = COC(=O)C1CN(c2ccc3nc(-c4c(N[C@@H](C)c5ccccn5)c5ccccc5[nH]c4=O)[nH]c3c2)CCO1 (single isomer, unassigned) [Compound 61]
With regard to IC50, arrange the entries in ascending order, please. Output the labels ranked as instructed.
a, b, c

I = CC(Nc1c(-c2nc3ccc(N4C[C@@H](C)O[C@H](C)C4)cc3[nH]2)c(=O)[nH]c2ccccc12)c1ncccn1 (single isomer, unassigned) [Compound 37a]
II = CC(Nc1c(-c2nc3ccc(N4CCO[C@@H](C)C4)cc3[nH]2)c(=O)[nH]c2ccccc12)c1ncccn1 (single isomer, unassigned) [Compound 26a]
III = C[C@H](Nc1c(-c2nc3ccc(N4CCOC(C(=O)O)C4)cc3[nH]2)c(=O)[nH]c2ccccc12)c1ccccn1 (mixture of isomers)
IV = C[C@H](Nc1c(-c2nc3ccc(N4CCOCC4)cc3[nH]2)c(=O)[nH]c2c(F)cccc12)c1ccccn1
Order field: IC50 | Direction: descending (largest first) The reply should contain the labels ordered as requested.
IV, III, I, II
(IV: 16.6 nM, III: 1.18 nM, I: 0.478 nM, II: 0.317 nM)

P = CC(Nc1c(-c2nc3ccc(N4C[C@@H](C)O[C@@H](C)C4)cc3[nH]2)c(=O)[nH]c2ccccc12)c1ncccn1 (single isomer, unassigned) [Compound 22a]
Q = CCC(Nc1c(-c2nc3ccc(N4CCOCC4)cc3[nH]2)c(=O)[nH]c2ccccc12)c1ncccn1 (single isomer, unassigned) [Compound 30a]
So which one has the bigger IC50 here, P or Q ? Choose, then provide that item's label.
P
(P: 0.445 nM, Q: 0.281 nM)
